- target_system: 5HT2 receptor (Mus musculus, UniProt P35363)
- Construct: from tissue; host or cells: whole living mouse (endogenous receptor of the brain)
- Sequence (P35363 whole entry): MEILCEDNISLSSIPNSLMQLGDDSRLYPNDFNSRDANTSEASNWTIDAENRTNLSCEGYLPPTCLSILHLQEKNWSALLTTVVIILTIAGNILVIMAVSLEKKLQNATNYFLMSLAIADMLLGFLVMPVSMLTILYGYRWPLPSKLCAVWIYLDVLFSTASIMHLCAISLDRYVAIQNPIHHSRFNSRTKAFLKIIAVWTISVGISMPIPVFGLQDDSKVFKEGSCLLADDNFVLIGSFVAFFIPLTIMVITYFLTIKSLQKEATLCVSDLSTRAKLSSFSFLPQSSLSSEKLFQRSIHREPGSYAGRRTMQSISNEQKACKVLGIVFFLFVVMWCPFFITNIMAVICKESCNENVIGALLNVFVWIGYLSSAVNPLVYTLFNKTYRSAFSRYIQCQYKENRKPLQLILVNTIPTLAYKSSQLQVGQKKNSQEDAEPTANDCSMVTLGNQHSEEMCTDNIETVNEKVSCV
- test_protocol: 5-DMT head twitch test
- Type: in vivo
- test_settings: ip, mice, 5-DMT induced head twitch, read-out: ED50 FOR ABOLITION OF HEAD TWITCH
Items are presented alongside their recorded ED50.
property: ED50 (mg/kg)

query_smiles=CS(=O)(=O)Nc1ccc(C(=O)C2CCN(CCc3ccc(F)cc3)CC2)cc1 target_system="5HT2 receptor (Mus musculus, UniProt P35363)" value_comparator== numeric_readout=0.49
query_smiles=CS(=O)(=O)Nc1ccc(C(=O)C2CCN(CC(=O)c3cccnc3)CC2)cc1 target_system="5HT2 receptor (Mus musculus, UniProt P35363)" value_comparator=> numeric_readout=200
query_smiles=CC(=O)Nc1ccc(C(=O)C2CCN(CC(=O)c3ccc(F)cc3)CC2)cc1 target_system="5HT2 receptor (Mus musculus, UniProt P35363)" value_comparator== numeric_readout=0.051
query_smiles=CS(=O)(=O)Nc1ccc(C(=O)C2CCN(CC(=O)c3ccc(F)cc3)CC2)cc1 target_system="5HT2 receptor (Mus musculus, UniProt P35363)" value_comparator== numeric_readout=0.034
